Assay: Test 4: metabolic stability test in human hepatic microsome
Assay type: in vitro ADME
Conditions: 0.1 mg/mL microsome, 0.1 μmol/L compound, NADPH, 37° C., 30 minutes
Quantity: Metabolic stability in human hepatic microsome

Recorded Metabolic stability in human hepatic microsome, per entry:
Cn1cc2c(n1)CCN(CCN1CCC(c3noc4ccccc34)CC1)C2=O | <0.01 mL/min/mg protein
O=C1c2nc(Cl)ccc2CCN1CCN1CCC(c2noc3ccccc23)CC1 | <0.05 mL/min/mg protein
Cn1ncc2c1CCCN(CCN1CCN(c3noc4ccccc34)CC1)C2=O | 0.012 mL/min/mg protein

Hey, can you go through the list below and give me Metabolic stability in human hepatic microsome for every item?
1. COc1ccc2c(n1)C(=O)N(CCN1CCC(c3noc4ccccc34)CC1)CC2
2. Cc1ncc2c(n1)CCN(CCN1CCC(c3noc4ccccc34)CC1)C2=O
3. Cc1nc2c(o1)CCCN(CCN1CCN(c3nsc4ccccc34)CC1)C2=O
4. Cc1ncc2c(=O)n(CCN3CCC(c4noc5ccccc45)CC3)ccc2n1
5. O=C1c2ncccc2CCN1CCN1CCN(c2noc3cc(F)ccc23)CC1
6. Cn1ccc2c1CCCN(CCN1CCC(c3noc4ccccc34)CC1)C2=O

OUT:
<0.05 mL/min/mg protein
<0.01 mL/min/mg protein
0.043 mL/min/mg protein
<0.05 mL/min/mg protein
<0.05 mL/min/mg protein
<0.01 mL/min/mg protein
